// data source = patent US20250270323A1

- Subject Of Test: human HHLA2 over-expressed on 300.19 mouse pre-B leukemic cells (human) (UniProt Q9UM44)
- Sequence (Q9UM44 23-414): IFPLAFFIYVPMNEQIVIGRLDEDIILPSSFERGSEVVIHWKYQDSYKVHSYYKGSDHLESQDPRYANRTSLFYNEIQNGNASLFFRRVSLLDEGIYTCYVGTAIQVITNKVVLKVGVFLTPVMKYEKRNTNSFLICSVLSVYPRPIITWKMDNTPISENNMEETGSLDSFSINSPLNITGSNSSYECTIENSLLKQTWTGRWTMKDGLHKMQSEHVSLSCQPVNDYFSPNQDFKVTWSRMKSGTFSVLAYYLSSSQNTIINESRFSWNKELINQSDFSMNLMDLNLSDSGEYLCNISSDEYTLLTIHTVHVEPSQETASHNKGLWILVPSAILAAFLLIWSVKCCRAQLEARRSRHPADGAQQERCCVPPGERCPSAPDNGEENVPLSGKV
- Protocol Text: flow cytometry on 300.19 cells over-expressing human HHLA2, antibody titration, gMFI (aHu-APC)
Endpoint Name: EC50 (read off the curve) (µg/mL)
Answer with a number only, understood to be in µg/mL.

binder="Ab-65887 (antibody, human IgG1, kappa, V domains shown, tested as IgG) VH: QVQLVQSGAEVKKPGASVKVSCKASGYTFEQYAMHWVRQAPGQRLEWMGFIPAGTGNTKYSQKFQGRVTITRDTSASTAYMELSSLRSEDTAVYYCARDRGGYWYDSWDDWGQGTLVTVSS VL: DIQMTQSPSSLSASVGDRVTITCRASQSISSYLNWYQQKPGKAPKLLIYGASSLQSGVPSRFSGSGSGTDFTLTISSLQPEDFATYYCQQVVFTPPTFGGGTKVEIKR" unit_symbol=µg/mL observed_measurement=0.1

Query Ab-65886 (antibody, human IgG1, kappa, V domains shown, tested as IgG) VH: QVQLVQSGAEVKKPGASVKVSCKASGYTFEKYAMHWVRQAPGQRLEWMGFIPAGTGNTKYSQKFQGRVTITRDTSASTAYMELSSLRSEDTAVYYCARDRGGYYYDSWDDWGQGTLVTVSS VL: DIQMTQSPSSLSASVGDRVTITCRASQSISSYLNWYQQKPGKAPKLLIYGASSLQSGVPSRFSGSGSGTDFTLTISSLQPEDFATYYCQQVAFTPPTFGGGTKVEIKR yields EC50 (read off the curve) of 0.1
